Target: T1, CD27 expressed on the cell surface of HT1080_CD27 cells (human, UniProt P26842 20-260); also: test concentration or dose not given here
T1 sequence (looked up): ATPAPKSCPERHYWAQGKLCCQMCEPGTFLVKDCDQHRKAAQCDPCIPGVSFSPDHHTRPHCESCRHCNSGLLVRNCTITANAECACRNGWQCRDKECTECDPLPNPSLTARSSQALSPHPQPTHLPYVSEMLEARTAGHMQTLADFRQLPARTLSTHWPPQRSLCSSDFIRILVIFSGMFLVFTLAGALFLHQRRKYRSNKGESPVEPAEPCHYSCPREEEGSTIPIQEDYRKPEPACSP
Experiment: cell-based or functional assay
Property: Functional assay Cross-linked by F(ab′)2 fragment IL-8 (abs. corr.)
Could you give me the number in abs. corr.? Just the number is fine.

Example binders with recorded Functional assay Cross-linked by F(ab′)2 fragment IL-8:
Binder: P018.S.09.A.A02 (antibody, V domains shown, V regions on human Ig constant parts; also called AB27_143) VH: QSVEESGGRLVTPGTPLTLTCTASGFSLSNFYMSWVRQAPGKGLEWIGIISTGGSAYYASWAKGRFTSSKTSTTVDLQITSPTTEDTATYFCARGSGTDGAWLYYGIDLWGPGTLVTVSS VL: DVVMTQTPASVEAAVGGTVTIKCQASENIGHALAWYQQKPGQPPKLLIYRTSTLASGVPSRFSGSGSGTQFSLTISDLDSADAATYFCQINYGGGSGGYFAFGGGTEVVVK
Experimental Value: 2.46

Binder: P018.S.05.A.D03 (antibody, V domains shown, V regions on human Ig constant parts; also called AB27_86) VH: QEQLEESGGDLVQPEGSLTLTCTVSGFSFNSNYWICWVRQAPGKGLEWIACIMTGDGSTYYATWAKGRFTISKTSSTTVTLQMTSLTAADTATYFCARGYDGIHGGDNYGHVFNLWGPGTLVTVSS VL: AFELTQTPFSVSAVVGGTVTINCQASENIYSLLAWYQQKPGQPPKLLIYRASTLASGVPSRFKGSGSGTQFTLIISDLESGDAATYYCQSYYINSSNSFGGGTEVVVK
Experimental Value: 1.28

Binder: P018.S.10.A.H05 (antibody, V domains shown, V regions on human Ig constant parts; also called AB27_186) VH: QSLEESGGRLVTPGTPLTLTCTASGFSLSTYYMSWVRQAPGKGLEWIGIIYTSGSTYYASWAKGRFTISRNSTTVDLKITSPTTEDTATYFCARSRVPGDTTGLYYFNLWGPGTLVTVSS VL: ALVMTQTPASVSAAVEGTVTINCQASENIYSNLAWYQQKPGQPPKLLIYHTSNLASGVPSRFKGSGAGTEFTLTISDLESDDAATYYCQSAYDSSSSDTFTFGGGTEVVVK
Experimental Value: 1.11

Answer with reported Functional assay Cross-linked by F(ab′)2 fragment IL-8 of P018.S.09.A.A06 (antibody, V domains shown, V regions on human Ig constant parts; also called AB27_146) VH: QEQLKESGGGLVQPGESLTLTCTASGFSLSSYYMSWVRQAPGKGLEWIGMISTGGSAYYANWARGRFTISRTSTTVDLKVTSLTTEDTATYFCARGWRYEDLWGQGTLVTVSS VL: AQVLTQTPSPVSAAVGSTVTINCQSSQTVYNNNYLAWYQQKPGQPPKLLIYDASNLASGVSSRFSGSGSGTQFTLTISDLESDDAATYYCQGTYYDNAWYHTFGGGTEVVVK
2.25
